Origin of values: patent US4293504A

System: tobacco cutworm
Experiment: whole plant or invertebrate
Format: in vivo
Conditions: 48 h, read-out: LC50 (median lethal concentration)
Below, each entry is listed with its recorded LC50.
Endpoint Name: LC50 (µg/mL)

[[record]]
compound = "CC(C)[C@H](C(=O)O[C@H](C#N)c1cccc(Oc2ccc(Br)cc2)c1)c1ccc(Cl)cc1"
units_of_measure = "µg/mL"
result = 4.2

[[record]]
compound = "CC(C)C(C(=O)OC(C#N)c1cccc(Oc2ccc(F)cc2)c1)c1ccc(Cl)cc1 (racemic) [Reference Compound (a), reference compound]"
units_of_measure = "µg/mL"
result = 5

[[record]]
compound = "CC(C)C(C(=O)OC(C#N)c1cccc(Oc2ccc(Cl)cc2)c1)c1ccc(Cl)cc1 (racemic) [(b), reference compound]"
units_of_measure = "µg/mL"
result = 15.2

[[record]]
compound = "CC(C)[C@H](C(=O)O[C@H](C#N)c1cccc(Oc2ccc(Cl)cc2)c1)c1ccc(Cl)cc1"
units_of_measure = "µg/mL"
result = 3.9


* * *

Tested on: tobacco cutworm
Assay: whole plant or invertebrate
Assay type: in vivo
Conditions: 48 h, read-out: LC50 (median lethal concentration)
Endpoint Name: LC50 (µg/mL)

[[record]]
molecule = "CC(C)C(C(=O)OC(C#N)c1cccc(Oc2ccc(Br)cc2)c1)c1ccc(Cl)cc1 (racemic) [(c), reference compound]"
test_system = "tobacco cutworm"
result = 20

[[record]]
molecule = "CC(C)[C@H](C(=O)O[C@H](C#N)c1cccc(Oc2ccc(F)cc2)c1)c1ccc(Cl)cc1"
test_system = "tobacco cutworm"
result = 1.2

[[record]]
molecule = "CC(C)[C@H](C(=O)OC(C#N)c1cccc(Oc2ccc(F)cc2)c1)c1ccc(Cl)cc1 (stereo partly shown)"
test_system = "tobacco cutworm"
result = 2.3

[[record]]
molecule = "CC(C)[C@H](C(=O)OC(C#N)c1cccc(Oc2ccc(Br)cc2)c1)c1ccc(Cl)cc1 (stereo partly shown)"
test_system = "tobacco cutworm"
result = 9.5

